Recorded values, source ChEMBL document CHEMBL1201862.

System: UO-31
Assay: NCI tumour cell line growth inhibition, 48 h
Active and inactive are the calls of the source. Rule as the data show it: active = GI50 up to about 1.1 µM and inactive = higher.
Choose one outcome from this list and give only that: yes (active), no (inactive)

c1ccc2c(-c3ccnc(-c4c[nH]c5ccccc45)n3)c[nH]c2c1 :: no

Hi team, can someone confirm the assay call for COc1cc(C2c3cc4c(cc3[C@@H](OCCN(C)C)C3COC(=O)[C@H]23)OCO4)cc(OC)c1O (some centres undefined) ?
yes

Next compound up: `Cc1cc(S(=O)(=O)Nc2cc(N)n[nH]2)c(SCc2nc(N)nc(N(C)C)n2)cc1Cl`
no

For `CC(C)(CCc1nc2ccccc2[nH]1)C(=O)O` then?
no

Next compound up: `CC(C)(C)c1ccc2c(c1)OP1(Oc3cccc4cccnc34)(O2)Oc2ccc(C(C)(C)C)cc2O1`
no

Next up: `O=C(NCP(=O)(c1ccccc1)c1ccccc1)OCc1ccccc1`
no

Next compound up: C[C@]12CCC3[C@@H](C[C@H]4OC(=O)[C@@]35CCC(=O)C=C45)C1CCC2=O (some centres undefined)
no

And then `COc1cc(C)c(C)c(OC(=O)c2c(C)c(C)c(OC)c(C)c2OC)c1C` , what is it?
no

What do you have for `O=C(O)CSC(NC(=O)C(C(F)(F)F)C(F)(F)F)(C(F)(F)F)C(F)(F)F` ?
no

Queued: `COc1ccc(/C=C2/CCCC/C2=N/O)cc1`
no

Entry C/C(CC(O)(/C=N/O)c1ccccc1)=N/O (centres undefined) please
no
